- Tested on: HEK293
- Experiment description: Cytotoxic Profiling of Annotated Libraries Using Quantitative High-Throughput Screening (AID 1296008); further: on the % scale 0 is the no-effect control and ±100 the full control effect; nearly all actives have a fitted effect of over 60% in size
- Details: Five cell lines viability, CellTiter-Glo ATP luminescence, 48-72 h; active compounds read low
- Procedure: Cell-based phenotypic screening is a commonly used approach to discover biological pathways, novel drug targets, chemical probes and high-quality hit-to-lead molecules. […] A pintool (Kalypsys) was used to transfer 23 nL of compound solution to the 1536-well assay plates. […] Plates were left at room temperature for 10 min before imaging the ATP-coupled luminescence using a ViewLux microplate imager (PerkinElmer, Waltham, MA).
Inconclusive results are not listed.
Recorded measurements of max response, one per entry
Numbers only here, please. The scale is %.

compound="CC1=CC2=C(C)C(=O)C(C)(O)C(O)C2CO1 (configuration not stated)" measured_target=HEK293 unit_abbrev=% observed=-9.93
compound=C/C=C(\C)C(=O)OC[C@H]1O[C@@H](O[C@H]2[C@@H](O[C@H]3O[C@H](CO)[C@@H](O)[C@H](O)[C@H]3O[C@@H]3O[C@H](CO)[C@@H](O)[C@H](O)[C@H]3O)O[C@H](COC(=O)/C(C)=C/C)[C@@H](O)[C@@H]2O)[C@H](O)[C@@H](O)[C@@H]1O measured_target=HEK293 unit_abbrev=% observed=-5.43
compound="COC(=O)C(CC1(OC(=O)C(C)C)c2ccccc2N2C(=O)C(C)(C)N(O)C21)n1cnc2ccccc2c1=O (configuration not stated)" measured_target=HEK293 unit_abbrev=% observed=-9.23
compound="C/C=C/C=C/C(=O)OC1CC/C=C/C(O)C(O)C(CCC)OC1=O (configuration not stated)" measured_target=HEK293 unit_abbrev=% observed=4.94
compound="COC(=O)c1cc(OC)cc(OC)c1C(=O)c1c(OC)cc2c(c1O)C1CCC(O)C(C)(O2)O1 (configuration not stated)" measured_target=HEK293 unit_abbrev=% observed=0.585
compound=O=C(O)CC/C=C\C[C@H]1CO[C@@H](c2ccccc2Cl)O[C@H]1c1ccccc1O measured_target=HEK293 unit_abbrev=% observed=-2.35

As a next step, examine the compound that follows.
(Q) Bench note: what max response did COc1cc(/C=C/C(=O)OC[C@H]2O[C@@H](OC3CC(C)=C(C(=O)O)C(C)(C)C3)[C@H](O)[C@@H](O)[C@@H]2O)cc(OC)c1O (some centres not stated) show?
(A) -1.71

---

Reported max response values follow for various compounds
- Tested on: HEK293
- Experiment description: Cytotoxic Profiling of Annotated Libraries Using Quantitative High-Throughput Screening (AID 1296008); further: on the % scale 0 is the no-effect control and ±100 the full control effect; nearly all actives have a fitted effect of over 60% in size
- Details: Five cell lines viability, CellTiter-Glo ATP luminescence, 48-72 h; active compounds read low
Inconclusive results are not listed.
// note: answer is a bare numeric in %

Previously resolved entries follow.
compound=Cc1cc(OCCN2CCOCC2)nn1-c1ccc2ccccc2c1 observed=-15.6
compound=CC(C)N(CCCNC(=O)Nc1ccc(C(C)(C)C)cc1)C[C@H]1O[C@@H](n2ccc3c(N)ncnc32)[C@H](O)[C@@H]1O observed=-23.8
compound="COc1cc(O)cc2c1C(=O)OC(C)CCCCCCC2 (stereo unspecified)" observed=-6.62
compound="CCCCCOC(=O)Nc1nc(=O)n(C2O[C@H](C)[C@@H](O)[C@H]2O)cc1F (stereo partly specified)" observed=-11.1
compound="CCOC(=O)C1=C(N)Oc2ccc(Cl)cc2C1C(C#N)C(=O)OCC (stereo unspecified)" observed=1.25

(Q) Param item = CC(C)C1NC(=O)C2CCCN2C1=O (stereo unspecified) ; retrieve measured max response.
(A) 0.78

---

- Tested on: CASKI
- Experiment description: Primary qHTS to identify gynecologic anti-cancer compounds using libraries of approved drugs and bioactive compounds (AID 1345084); further: on the % scale 0 is the no-effect control and ±100 the full control effect; nearly all actives have a fitted effect of over 55% in size
- Details: Gynecologic cancer cell panel viability, ATPlite luminescence, 48 h; series mostly up to 57.5 µM
Records with an inconclusive call do not appear. Activity calls are given as the source filed them. Calls follow the shape of the dose curve; as a rule, active = well fitted cell-killing curve with a large enough effect; inconclusive = small, poorly fitted or top-dose-only effect, or effect the other way; inactive = flat fitted curve, though single readings scatter. *1 amine or outer side, *2 acyl side, *3 side chain or, on linkers, in order; H or OH if unused. Where a SMILES comes first, the peptide text is derived from it. [ ]: non-standard residue; d: D form. The star is where a group is joined. ξ: configuration not given here. ξTyr(βOH) = NC(C(=O)O)C(O)c1ccc(O)cc1; X13 = O=C(C(CC(O)CO)O[*:1])[*:2]; AMC = Cc1cc(=O)oc2cc(N*)ccc12; NMeV = CN[CH](C(=O)O)C(C)C; Cbz = O=C(OCc1ccccc1)*; NMeA = CN[CH](C)C(=O)O; βAla = NCCC(=O)O
Readout label: activity change, negative = cytotoxicity

molecule=CC[C@H](NC(=O)c1c(O)c(-c2ccccc2)nc2ccccc12)c1ccccc1 observed=inactive
molecule="CCC(C)C1NC(=O)C2CCCN2C(=O)C(CC(O)CO)OC(=O)CCNC(=O)C(C)N(C)C(=O)C(C(C)C)N(C)C1=O (centres undefined) (cyclo([X13]PI[NMeV][NMeA][βAla]); configuration not given here)" observed=inactive
molecule=COC(=O)C1=CO[C@@H](O[C@@H]2O[C@H](CO)[C@@H](O)[C@H](O)[C@H]2O)[C@@H]2[C@@H](C(=O)O)CC[C@H]12 observed=inactive
molecule="COC(=O)CCC1(C)C(C(C)(C)O)C(O)CC2(C)Oc3c(C)c4c(c(OC)c3CC21)C(=O)OC4 (centres undefined)" observed=inactive
molecule="CC1CCC2(NC1)OC1C(O)C3C4CCC5CC(O[C@@H]6O[C@H](CO)[C@@H](O)[C@H](O)[C@H]6O[C@@H]6O[C@@H](C)[C@H](O)[C@@H](O)[C@H]6O)CCC5(C)C4CCC3(C)C1C2C (some centres undefined)" observed=inactive
molecule="CC1(C)CC[C@]2(C(=O)O)CC[C@]3(C)C(=CCC4[C@@]5(C)C[C@@H](O)[C@H](O)[C@@](C)(CO)C5[C@H](O)C[C@]43C)[C@@H]2C1 (some centres undefined)" observed=inactive
molecule=COc1ccc(CCC(=O)c2c(O)cc(O[C@@H]3O[C@H](CO)[C@@H](O)[C@H](O)[C@H]3O[C@@H]3O[C@@H](C)[C@H](O)[C@@H](O)[C@H]3O)cc2O)cc1O observed=inactive
molecule=COc1cc([C@H]2OC[C@](O)(Cc3ccc(O[C@@H]4O[C@H](CO)[C@@H](O)[C@H](O)[C@H]4O)c(OC)c3)[C@@H]2CO)ccc1O observed=inactive

(Q) # returns recorded activity change, negative = cytotoxicity (system: CASKI) for `CC[C@@H](C)[C@H](N)C(=O)N1Cc2ccccc2C1`
(A) inactive

(Q) // map `CN1C(=O)N(c2cc(Cl)cc(Cl)c2)C(=O)[C@@]1(C)Cc1ccc(Br)cc1` to recorded activity change, negative = cytotoxicity (system: CASKI)
(A) inactive

(Q) Notebook: pull reported activity change, negative = cytotoxicity for CASKI, entry CC(C)C1NC(=O)CNC(=O)C2CCCN2C(=O)C(Cc2c[nH]c3ccccc23)NC(=O)CNC(=O)C(C(O)c2ccc(O)cc2)NC(=O)CNC1=O (centres undefined) (cyclo(G[ξTyr(βOH)]GWPGV); configuration not given here)
(A) inactive

(Q) Observed activity change, negative = cytotoxicity on CASKI for O=C(O)CC1CCC(c2ccc(NC(=O)c3nnc(Nc4ccc(F)c(F)c4)o3)cc2)CC1 (centres undefined) , please.
(A) inactive

(Q) Lookup: activity change, negative = cytotoxicity / CASKI / C[C@@H]1O[C@@H](O[C@H]2[C@H](O[C@H]3[C@H](O[C@H]4CC[C@@]5(C)C(CC[C@]6(C)C5CC=C5[C@@H]7CC(C)(C)C[C@@H](O)[C@]7(C)CC[C@]56C)[C@@]4(C)CO)O[C@H](C(=O)O)[C@@H](O)[C@@H]3O)O[C@H](CO)[C@H](O)[C@@H]2O)[C@H](O)[C@H](O)[C@H]1O (some centres undefined)
(A) 9.29% [at 11.6 µM] (inactive)

(Q) Query activity change, negative = cytotoxicity on CASKI for C=C1C2(C)CC3C4(C)C=CC(=O)OC(C)(C)C4CCC3(C)C1(C(=O)OC)C(=O)C(C)(O)C2=O (centres undefined)
(A) inactive

(Q) What measured activity change, negative = cytotoxicity is associated with `CCOc1ccc(-c2cc(NC(=O)c3c(F)cccc3F)c(C(=O)O)s2)cc1` on CASKI?
(A) inactive

(Q) What reported activity change, negative = cytotoxicity corresponds to CC(C)=CC1C[C@](C)(O)[C@@H]2[C@H]3CCC4[C@@]5(C)CC[C@H](O[C@@H]6OC[C@H](O)[C@H](O[C@@H]7O[C@H](CO[C@@H]8O[C@H](CO)[C@@H](O)[C@H](O)[C@H]8O)[C@@H](O)[C@H](O)[C@H]7O)[C@H]6O[C@@H]6O[C@@H](C)[C@H](O)[C@@H](O)[C@H]6O)C(C)(C)[C@@H]5CC[C@@]4(C)[C@@]34CO[C@@]2(C4)O1 (some centres undefined) on CASKI?
(A) 12.3% [at 11.6 µM] (inactive)

(Q) State its activity change, negative = cytotoxicity on CASKI: CSCC[C@H](NC(=O)[C@H](CO)NC(=O)[C@H](CCC(=O)O)NC(C)=O)C(=O)N[C@H](C=O)CC(=O)O (Ac-ESMD-aldehyde)
(A) 18.4% [at 11.6 µM] (inactive)

(Q) Give the reported activity change, negative = cytotoxicity for Cc1cc(=O)oc2cc(NC(=O)[C@H](CCC(=O)O)NC(=O)[C@H](CC(C)C)NC(=O)[C@H](CC(C)C)NC(=O)OCc3ccccc3)ccc12 (Cbz-Leu-Leu-Glu-{AMC}) (system: CASKI).
(A) inactive

// data source = PubChem BioAssay (NCATS)
